# Tested on: SK-MEL-28
# Protocol Text: Growth inhibition of CDK9-positive tumor cell line in vitro
# Format: cell-based
# Measurement Conditions: Human melanoma, read-out: Inhibitory activity (IC50) on growth in vitro, SK-MEL-28
Assay Metric: IC50

# Compound, Assay Metric, Obs Value
rows = [
    ("NC(=O)c1cn(-c2nc(Nc3cccc(N4CCN(C5CCOCC5)CC4)c3)ncc2F)c2ccccc12 [Compound 140]", "IC50", "0.001 to 0.01 µM"),
    ("CCN1CCN(c2cccc(Nc3ncc(F)c(-n4cc(C(N)=O)c5cc(OC)ccc54)n3)c2)CC1 [Compound 152]", "IC50", "0.001 to 0.01 µM"),
    ("CC(C)N1CCN(c2cccc(Nc3ncc(F)c(-n4cc(C(N)=O)c5ccccc54)n3)c2)CC1 [Compound 144]", "IC50", "0.001 to 0.01 µM"),
    ("CCN1CCN(c2cccc(Nc3ncc(F)c(-n4cc(C(N)=O)c5cc(F)ccc54)n3)c2)CC1 [Compound 161]", "IC50", "0.001 to 0.01 µM"),
    ("Cc1cc(Nc2ncc(Cl)c(-n3cc(C(N)=O)c4ccccc43)n2)ccc1N1CCN(C(C)C)CC1 [Compound 60]", "IC50", "0.1 to 1 µM"),
]

----------
# System: AGS
# Protocol Text: Growth inhibition of CDK9-positive tumor cell line in vitro
# Assay type: cell-based
# Measurement Conditions: Human stomach cancer, read-out: Inhibitory activity (IC50) on growth in vitro, AGS

# Given Smiles, IC50
rows = [
    ("NC(=O)c1cn(-c2nc(Nc3cccc(N4CCN(C5CCOCC5)CC4)c3)ncc2F)c2ccccc12", "0.001 to 0.01 µM"),
    ("CCN1CCN(c2cccc(Nc3ncc(F)c(-n4cc(C(N)=O)c5cc(OC)ccc54)n3)c2)CC1", "0.001 to 0.01 µM"),
    ("CC(C)N1CCN(c2cccc(Nc3ncc(F)c(-n4cc(C(N)=O)c5ccccc54)n3)c2)CC1", "0.001 to 0.01 µM"),
    ("Cc1cc(Nc2ncc(Cl)c(-n3cc(C(N)=O)c4ccccc43)n2)ccc1N1CCN(C(C)C)CC1", "0.1 to 1 µM"),
    ("CCN1CCN(c2cccc(Nc3ncc(F)c(-n4cc(C(N)=O)c5cc(F)ccc54)n3)c2)CC1", "0.001 to 0.01 µM"),
]

----------
# System: HCC1954
# Protocol Text: Growth inhibition of CDK9-positive tumor cell line in vitro
# Format: cell-based
# Measurement Conditions: Human breast cancer, read-out: Inhibitory activity (IC50) on growth in vitro, HCC1954

# Given Smiles, IC50
rows = [
    ("Cc1cc(Nc2ncc(Cl)c(-n3cc(C(N)=O)c4ccccc43)n2)ccc1N1CCN(C(C)C)CC1", "1 to 10 nM"),
    ("CCN1CCN(c2cccc(Nc3ncc(F)c(-n4cc(C(N)=O)c5cc(F)ccc54)n3)c2)CC1", "< 1 nM"),
    ("CCN1CCN(c2cccc(Nc3ncc(F)c(-n4cc(C(N)=O)c5cc(OC)ccc54)n3)c2)CC1", "< 1 nM"),
    ("NC(=O)c1cn(-c2nc(Nc3cccc(N4CCN(C5CCOCC5)CC4)c3)ncc2F)c2ccccc12", "< 1 nM"),
    ("CC(C)N1CCN(c2cccc(Nc3ncc(F)c(-n4cc(C(N)=O)c5ccccc54)n3)c2)CC1", "< 1 nM"),
]
